Source of measurements: patent US9493537B2

# assayExplanation: Biodistribution in B16/F1 melanoma-bearing C57 mice
# Format: in vivo
# conditionLabel: female, C57, mouse, spleen, iv, 0.037 MBq, total radioactivity, 2 h post-injection; read-out: Spleen uptake
readout: tissue uptake at 2 h (%ID/g)
API: value field is a number in %ID/g; no unit string.

Hello, please tell me recorded tissue uptake at 2 h for this one: CCCC[C@H](NC(=O)CN1CCN(CC(=O)O)CCN(CC(=O)O)CCN(CC(=O)O)CC1)C(=O)N[C@H]1CC(=O)NCCCC[C@@H](C(N)=O)NC(=O)[C@H](Cc2c[nH]c3ccccc23)NC(=O)[C@H](CCCNC(=N)N)NC(=O)[C@@H](Cc2ccccc2)NC(=O)[C@H](Cc2c[nH]cn2)NC1=O [^111In-DOTA-Nle-CycMSHhex, metal not drawn]
0.41

====

# assayExplanation: Biodistribution in B16/F1 melanoma-bearing C57 mice
# Format: in vivo
# conditionLabel: female, C57, mouse, lung, iv, 0.037 MBq, total radioactivity, 2 h post-injection; read-out: Lung uptake
readout: tissue uptake at 2 h
Reply with the number, then its unit.

Given the molecule CCCC[C@H](NC(=O)CN1CCN(CC(=O)O)CCN(CC(=O)O)CCN(CC(=O)O)CC1)C(=O)N[C@H]1CC(=O)NCCCC[C@@H](C(N)=O)NC(=O)[C@H](Cc2c[nH]c3ccccc23)NC(=O)[C@H](CCCNC(=N)N)NC(=O)[C@@H](Cc2ccccc2)NC(=O)[C@H](Cc2c[nH]cn2)NC1=O [^111In-DOTA-Nle-CycMSHhex, metal not drawn] , write its reported tissue uptake at 2 h.
0.32 %ID/g

====

# assayExplanation: Biodistribution in B16/F1 melanoma-bearing C57 mice
# Format: in vivo
# conditionLabel: female, C57, mouse, brain, iv, 0.037 MBq, total radioactivity, 0.5 h post-injection; read-out: Brain uptake
readout: tissue uptake at 0.5 h (%ID/g)
Unit %ID/g implied. Number only.

Determine from records and report tissue uptake at 0.5 h for CCCC[C@H](NC(=O)CN1CCN(CC(=O)O)CCN(CC(=O)O)CCN(CC(=O)O)CC1)C(=O)N[C@H]1CC(=O)NCCCC[C@@H](C(N)=O)NC(=O)[C@H](Cc2c[nH]c3ccccc23)NC(=O)[C@H](CCCNC(=N)N)NC(=O)[C@@H](Cc2ccccc2)NC(=O)[C@H](Cc2c[nH]cn2)NC1=O [^111In-DOTA-Nle-CycMSHhex, metal not drawn]
0.21

====

# assayExplanation: Biodistribution in B16/F1 melanoma-bearing C57 mice
# Assay type: in vivo
# conditionLabel: female, C57, mouse, stomach, iv, total radioactivity, 2 h post-injection, L-lysine co-injection; read-out: Stomach uptake
readout: tissue uptake at 2 h (%ID/g)
The reply should be a number in %ID/g, with the unit left off.

Identify measured tissue uptake at 2 h associated with CCCC[C@H](NC(=O)CN1CCN(CC(=O)O)CCN(CC(=O)O)CCN(CC(=O)O)CC1)C(=O)N[C@H]1CC(=O)NCCCC[C@@H](C(N)=O)NC(=O)[C@H](Cc2c[nH]c3ccccc23)NC(=O)[C@H](CCCNC(=N)N)NC(=O)[C@@H](Cc2ccccc2)NC(=O)[C@H](Cc2c[nH]cn2)NC1=O [^111In-DOTA-Nle-CycMSHhex, metal not drawn]
1.64

====

# assayExplanation: Biodistribution in B16/F1 melanoma-bearing C57 mice
# Assay type: in vivo
# conditionLabel: female, C57, mouse, intestines, iv, 0.037 MBq, total radioactivity, 4 h post-injection; read-out: Intestines, percent injected dose
readout: tissue uptake dose at 4 h (%ID)
Please respond with the number in %ID and leave the unit unwritten.

Quickly give me recorded tissue uptake dose at 4 h for CCCC[C@H](NC(=O)CN1CCN(CC(=O)O)CCN(CC(=O)O)CCN(CC(=O)O)CC1)C(=O)N[C@H]1CC(=O)NCCCC[C@@H](C(N)=O)NC(=O)[C@H](Cc2c[nH]c3ccccc23)NC(=O)[C@H](CCCNC(=N)N)NC(=O)[C@@H](Cc2ccccc2)NC(=O)[C@H](Cc2c[nH]cn2)NC1=O [^111In-DOTA-Nle-CycMSHhex, metal not drawn]
3.03

====

# assayExplanation: Biodistribution in B16/F1 melanoma-bearing C57 mice
# Type: in vivo
# conditionLabel: female, C57, mouse, muscle, iv, 0.037 MBq, total radioactivity, 0.5 h post-injection; read-out: Muscle uptake
readout: tissue uptake at 0.5 h
Kindly write the number and append the unit.

Input CCCC[C@H](NC(=O)CN1CCN(CC(=O)O)CCN(CC(=O)O)CCN(CC(=O)O)CC1)C(=O)N[C@H]1CC(=O)NCCCC[C@@H](C(N)=O)NC(=O)[C@H](Cc2c[nH]c3ccccc23)NC(=O)[C@H](CCCNC(=N)N)NC(=O)[C@@H](Cc2ccccc2)NC(=O)[C@H](Cc2c[nH]cn2)NC1=O [^111In-DOTA-Nle-CycMSHhex, metal not drawn] , output reported tissue uptake at 0.5 h.
0.6 %ID/g

====

# assayExplanation: Biodistribution in B16/F1 melanoma-bearing C57 mice
# Assay type: in vivo
# conditionLabel: female, C57, mouse, lung, iv, 0.037 MBq, total radioactivity, 4 h post-injection; read-out: Lung uptake
# Experimental: All the animal studies were conducted in compliance with Institutional Animal Care and Use Committee approval. The mice were housed five animals per cage in sterile micro-isolator cages in a temperature- and humidity-controlled room with a 12-h light/12-h dark schedule. […] Groups of 5 mice were sacrificed at 0.5, 2, 4 and 24 h post-injection, and tumors and organs of interest were harvested, weighed and counted. […] The tumor and organs of interest were harvested, weighed and counted. […]
readout: tissue uptake at 4 h
Answer format reminder: number followed by unit.

Provide measured tissue uptake at 4 h value, entry: CCCC[C@H](NC(=O)CN1CCN(CC(=O)O)CCN(CC(=O)O)CCN(CC(=O)O)CC1)C(=O)N[C@H]1CC(=O)NCCCC[C@@H](C(N)=O)NC(=O)[C@H](Cc2c[nH]c3ccccc23)NC(=O)[C@H](CCCNC(=N)N)NC(=O)[C@@H](Cc2ccccc2)NC(=O)[C@H](Cc2c[nH]cn2)NC1=O [^111In-DOTA-Nle-CycMSHhex, metal not drawn]
0.1 %ID/g

====

# assayExplanation: Biodistribution in B16/F1 melanoma-bearing C57 mice
# Assay type: in vivo
# conditionLabel: female, C57, mouse, spleen, iv, 0.037 MBq, total radioactivity, 4 h post-injection; read-out: Spleen uptake
readout: tissue uptake at 4 h (%ID/g)
The response must be a number in %ID/g with no trailing unit.

// fetch tissue uptake at 4 h given entry CCCC[C@H](NC(=O)CN1CCN(CC(=O)O)CCN(CC(=O)O)CCN(CC(=O)O)CC1)C(=O)N[C@H]1CC(=O)NCCCC[C@@H](C(N)=O)NC(=O)[C@H](Cc2c[nH]c3ccccc23)NC(=O)[C@H](CCCNC(=N)N)NC(=O)[C@@H](Cc2ccccc2)NC(=O)[C@H](Cc2c[nH]cn2)NC1=O [^111In-DOTA-Nle-CycMSHhex, metal not drawn]
0.47

====

# assayExplanation: Biodistribution in B16/F1 melanoma-bearing C57 mice
# Format: in vivo
# conditionLabel: female, C57, mouse, bone, iv, 0.037 MBq, total radioactivity, 24 h post-injection; read-out: Bone uptake
readout: tissue uptake at 24 h (%ID/g)
Number only, in %ID/g; omit the unit.

Read off the recorded tissue uptake at 24 h for CCCC[C@H](NC(=O)CN1CCN(CC(=O)O)CCN(CC(=O)O)CCN(CC(=O)O)CC1)C(=O)N[C@H]1CC(=O)NCCCC[C@@H](C(N)=O)NC(=O)[C@H](Cc2c[nH]c3ccccc23)NC(=O)[C@H](CCCNC(=N)N)NC(=O)[C@@H](Cc2ccccc2)NC(=O)[C@H](Cc2c[nH]cn2)NC1=O [^111In-DOTA-Nle-CycMSHhex, metal not drawn]
0.16

====

# assayExplanation: Biodistribution in B16/F1 melanoma-bearing C57 mice
# Assay type: in vivo
# conditionLabel: female, C57, mouse, blood, iv, total radioactivity, 2 h post-injection, L-lysine co-injection; read-out: Blood uptake
readout: tissue uptake at 2 h (%ID/g)
Give your result in %ID/g as a bare value.

Determine its reported tissue uptake at 2 h: CCCC[C@H](NC(=O)CN1CCN(CC(=O)O)CCN(CC(=O)O)CCN(CC(=O)O)CC1)C(=O)N[C@H]1CC(=O)NCCCC[C@@H](C(N)=O)NC(=O)[C@H](Cc2c[nH]c3ccccc23)NC(=O)[C@H](CCCNC(=N)N)NC(=O)[C@@H](Cc2ccccc2)NC(=O)[C@H](Cc2c[nH]cn2)NC1=O [^111In-DOTA-Nle-CycMSHhex, metal not drawn]
0.92

====

# assayExplanation: Biodistribution in B16/F1 melanoma-bearing C57 mice
# Type: in vivo
# conditionLabel: female, C57, mouse, brain, iv, 0.037 MBq, total radioactivity, 4 h post-injection; read-out: Brain uptake
# Description: All the animal studies were conducted in compliance with Institutional Animal Care and Use Committee approval. The mice were housed five animals per cage in sterile micro-isolator cages in a temperature- and humidity-controlled room with a 12-h light/12-h dark schedule. […] Groups of 5 mice were sacrificed at 0.5, 2, 4 and 24 h post-injection, and tumors and organs of interest were harvested, weighed and counted. […] The tumor and organs of interest were harvested, weighed and counted. […]
readout: tissue uptake at 4 h
I'd appreciate it if you included the unit after the number.

Please give the documented tissue uptake at 4 h of CCCC[C@H](NC(=O)CN1CCN(CC(=O)O)CCN(CC(=O)O)CCN(CC(=O)O)CC1)C(=O)N[C@H]1CC(=O)NCCCC[C@@H](C(N)=O)NC(=O)[C@H](Cc2c[nH]c3ccccc23)NC(=O)[C@H](CCCNC(=N)N)NC(=O)[C@@H](Cc2ccccc2)NC(=O)[C@H](Cc2c[nH]cn2)NC1=O [^111In-DOTA-Nle-CycMSHhex, metal not drawn]
0.06 %ID/g
